Test system: T1, human TIGIT (human, UniProt Q495A1 22-244)
T1 construct: Cell-surface form; also called huTIGIT
T1 sequence: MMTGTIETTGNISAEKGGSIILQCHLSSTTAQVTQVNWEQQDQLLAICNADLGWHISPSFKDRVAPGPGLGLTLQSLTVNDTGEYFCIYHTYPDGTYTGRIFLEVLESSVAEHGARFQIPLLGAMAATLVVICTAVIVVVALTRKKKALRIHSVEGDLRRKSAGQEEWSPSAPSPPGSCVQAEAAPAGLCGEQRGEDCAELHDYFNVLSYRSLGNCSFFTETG
Experimental protocol: flow cytometry, 1 µg/mL on activated primary human T cells, fold over isotype control
Reported property: FACS Geomean Fold (fold)
Give bare numbers, in fold.

These recorded examples may help you get a feel for the data.
43B7 (antibody, V domains shown, Fully human XenoMouse antibody, tested as hybridoma supernatant or purified mAb) VH: QVQLQESGPGLVKPSQTLSLTCTVSGGSISSGGYYWSWIRQHPGKGLEWIGYIYYRGGTYYNPSLRSRVTMSVDTSKNQFSLMLSSVTAADTAVYYCARTIFGVIILDNWGQGTPVTVSS VL: DIQMTQSPSSLSASVGDRVTITCRSSQSISSYLNWYQQKPGRAPKLLIHAASSLQSGVPSRFSGSGSGTDFTLTISSLQPEDFASYCCQQSYTTPPTFGGGTKVEIKR | 13.7
28B8 (antibody, V domains shown, Fully human XenoMouse antibody, tested as hybridoma supernatant or purified mAb) VH: QVQLQESGPGLVKPSETLFLTCTVSGGSVTNYYWSWIRQPAGKGLEWIGRIYTSGSTYYNPSLKSRVTMSLDTSKNQFSLRLSSVTAADTAVYYCAREGFTMVRGVMGAFDIWGQGTMVTVSS VL: DIQMTQSPSSLSASVGDRVTITCRASQSIRRYLNWYQQIPGKAPKFLIYDASSLQSGVPSRFSGSGSGTDFTLTISSLQPEDFATYYCQQSYSTPPTFGQGTKVEIKR | 14.4
58A7 (antibody, V domains shown, Tested as hybridoma supernatant or purified mAb; also called 48B7) VH: QVQLQESGPGLVKPSQTLSLTCTVSGGSISSGGYYWNWIRQHPGKGLEWIGYIYYSGSTFYNPSLKSRVIISVDTSKNQFSLKLSSVTAADTAVYYCARAPRYNWNYGWFDPWGQGTLVTVSS VL: EIVLTQSPGTLSLSPGERATLSCRASQNVSSTYLAWYQQKPGQAPRLLFYGASSRATGIPDRFSRSGSGTDFTLTISRLEPEDFAVYYCQQYDVSPWTFGQGTKVEIK | 4.5
11A3 (antibody, V domains shown, Fully human XenoMouse antibody, tested as hybridoma supernatant or purified mAb) VH: QVQLVQSGAEVKKPGASVKVSCKASGYTFTSYYIHWVRQAPGQGLEWMGIINPSGGRTSYAQMFQGRVTLTRDTSTNTVYMELSSLRSEDTAVFYCAKDREEQWPVGGFDYWGQGTLVTVSS VL: DIQMTQSPSSLSASVGDRVTITCRASQNIRRYLNWYQQKPGKAPELLIYSASNLQNGVPSRFSGSGSGTDFTLTISSLQPEDFATYYCQQSYIIPPTFGQGTKVEIRR | 11.6
66H9 (antibody, V domains shown, Fully human XenoMouse antibody, tested as hybridoma supernatant or purified mAb) VH: QVQLQESGPGLVKPSQTLSLTCTVSGGSISSVYFYWNWIRQHPGKGLEWIGYIYYSGGTYYNPSLRSRVTISVDTSKNQFSLKLNSVTAADTAVYYCARGSIAAGGGYFYYNDMDVWGQGTTVTVSS VL: EIVLTQSPDFQSVTPKEKVAITCRASQSIGSSLHWYQQKPDQSPKPLIKYVSQSFSGVPSRFSGSGSGTDFTLTINSLEAEDAATYYCHQSSSLPLTFGGGTKVEIKR | 4.1

With those in mind, consider the next binder.
Endpoint output: FACS Geomean Fold of 4G10 (antibody, V domains shown, Fully human XenoMouse antibody, tested as hybridoma supernatant or purified mAb) VH: QVQLQESGPGLVNPSQTLSLTCIVSGGSIRSGDYYWSWIRQHPGKGLEWIGYIYYSGGTYYNPSLKSRVIISVDTTKNQFSLKLSSMTAADTAVYYCARGSIAARSGYFYFSGLDVWGQGPTVTVSS VL: EIVLTQTPLSLSVTPGQPASISCKSSQSLLPSDGKTYLSWYLQKPGLPPQVLIYEVSNRFSGVPDRFSGSGSGTDFTLKISRVEAEDVGVYYCMQSIQLPLTFGGGTKVEIKR . Value? 13.5
